test-summary: Half life in human liver microsomes
Assay type: ADME, Microsome
endpoint-label: half-life

Worked cases, answers included:
line_notation=COc1ccc(CN2C(=O)c3cccc(N4CCN([C@H](C)c5ccccc5)CC4)c3C2=O)cc1OC endpoint_label=half-life meas_value="29 min"
line_notation=COc1ccc(CN2C(=O)c3cccc(N4CCN(Cc5c(F)cccc5F)CC4)c3C2=O)cc1OC endpoint_label=half-life meas_value="< 3 min"

Let us move to another entry and its half-life.
Req: State its half-life for this molecule: "COc1ccc(CN2C(=O)c3cccc(N4CCN(Cc5ccccc5)CC4)c3C2=O)cc1OC"
Resp: < 3 min

###

study-target: Urotensin-2 receptor (Homo sapiens)
test-summary: Antagonist activity at urotensin 2 receptor in human RMS13 cells assessed as inhibition of urotensin 2-induced intracellular calcium mobilization after 1 hr by FLIPR assay
endpoint-label: IC50 (nM)
Please give a number only; it is taken to be in nM.

Worked cases, answers included:
compound=COc1ccc([C@@H](CCCN(C)S(=O)(=O)c2cccs2)N2Cc3c(cccc3N3CCN(C(C)C)CC3)C2=O)cc1OC meas_value=500
compound=CCN1CCN(c2cccc3c2CN([C@H](CCCNS(=O)(=O)c2cn(C)c(C)n2)c2ccc(OC)c(OC)c2)C3=O)CC1 meas_value=51
compound=CCN1CCN(c2cccc3c2CN([C@H](CCCNc2cncc(OC)n2)c2ccc(OC)c(OC)c2)C3=O)CC1 meas_value=62
compound="Cc1cc(NC(=O)NCCN2CCC(O)(Cc3ccccc3)CC2)c2ccccc2n1 [PALOSURAN]" meas_value=320
compound=COc1ccc([C@@H](CCCNC(=O)c2cnoc2C)N2Cc3c(cccc3N3CCN([C@H](C)c4ccccc4)CC3)C2=O)cc1OC meas_value=320
compound=COc1ccc(CN2C(=O)c3cccc(N4CCN([C@H](C)c5ccccc5)CC4)c3C2=O)cc1OC meas_value=1900

Let us move to another entry and its IC50.
Req: # assay system Urotensin-2 receptor (Homo sapiens): give IC50 of "COc1ccc([C@@H](CCCN(C)S(=O)(=O)c2cccs2)N2Cc3c(cccc3N3CCN(C4CC4)CC3)C2=O)cc1OC"
Resp: 1200

###

log10(IC50) overview
study-target: Urotensin-2 receptor (Rattus norvegicus)
Sequence (P49684 whole entry): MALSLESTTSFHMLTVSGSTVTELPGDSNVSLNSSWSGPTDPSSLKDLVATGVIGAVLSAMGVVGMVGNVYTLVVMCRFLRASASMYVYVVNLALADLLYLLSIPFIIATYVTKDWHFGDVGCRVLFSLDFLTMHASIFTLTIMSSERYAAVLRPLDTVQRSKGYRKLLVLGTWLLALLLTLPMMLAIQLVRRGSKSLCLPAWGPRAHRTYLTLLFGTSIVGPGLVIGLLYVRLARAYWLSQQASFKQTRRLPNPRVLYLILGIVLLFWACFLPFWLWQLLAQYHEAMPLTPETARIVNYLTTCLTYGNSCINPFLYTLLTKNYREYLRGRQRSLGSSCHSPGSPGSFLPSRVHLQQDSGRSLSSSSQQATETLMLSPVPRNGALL
test-summary: Antagonist activity at rat urotensin 2 receptor expressed in CHOK1 cells assessed as inhibition of urotensin 2-induced intracellular calcium mobilization after 10 min by FLIPR assay
Scale: decimal log of IC50, IC50 in µM.

Worked cases, answers included:
compound=COc1ccc([C@@H](CCCNS(=O)(=O)c2ccc(Cl)s2)N2C(=O)c3cccc(N4CCN([C@H](C)c5ccccc5)CC4)c3C2=O)cc1OC meas_value=0.23
compound="COc1ccc(C(CCNS(=O)(=O)c2cccs2)N2C(=O)c3cccc(N4CCN([C@H](C)c5ccccc5)CC4)c3C2=O)cc1OC (stereo partly drawn)" meas_value=-0.92

Req: State its log10(IC50) for this compound: "CCN1CCN(c2cccc3c2[C@H]2CCC[C@H](c4ccc(OC)c(OC)c4)N2C3=O)CC1"
Resp: -1.85

###

Ki overview
study-target: Urotensin-2 receptor (Homo sapiens, UniProt Q9UKP6)
Sequence (Q9UKP6 whole entry): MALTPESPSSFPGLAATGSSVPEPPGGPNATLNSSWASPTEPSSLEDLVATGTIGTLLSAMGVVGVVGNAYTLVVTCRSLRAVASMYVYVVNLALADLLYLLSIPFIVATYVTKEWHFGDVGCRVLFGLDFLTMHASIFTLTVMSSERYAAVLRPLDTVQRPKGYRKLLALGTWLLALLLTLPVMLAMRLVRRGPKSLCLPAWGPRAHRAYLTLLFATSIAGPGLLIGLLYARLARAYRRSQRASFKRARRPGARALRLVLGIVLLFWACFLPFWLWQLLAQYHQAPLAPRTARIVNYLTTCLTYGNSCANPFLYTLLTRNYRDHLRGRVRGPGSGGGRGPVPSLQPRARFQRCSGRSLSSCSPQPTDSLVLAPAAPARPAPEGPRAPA
test-summary: Displacement of [125I]urotensin 2 from urotensin 2 receptor in human RMS13 cells by scintillation proximity assay
Please give a number only; it is taken to be in nM.

Worked cases, answers included:
compound=CCN1CCN(c2cccc3c2CN([C@H](CCCNc2cncc(OC)n2)c2ccc(OC)c(OC)c2)C3=O)CC1 endpoint_label=Ki meas_value=8
compound="COc1ccc(C(CCNS(=O)(=O)c2cccs2)N2C(=O)c3cccc(N4CCN([C@H](C)c5ccccc5)CC4)c3C2=O)cc1OC (some centres undefined)" endpoint_label=Ki meas_value=270
compound="COc1ccc(C(CN)N2C(=O)c3cccc(N4CCN([C@@H](C)c5ccccc5)CC4)c3C2=O)cc1OC (some centres undefined)" endpoint_label=Ki meas_value=700

Req: State its Ki for this compound: "COc1ccc([C@@H](CCCNS(C)(=O)=O)N2C(=O)c3cccc(N4CCN([C@H](C)c5ccccc5)CC4)c3C2=O)cc1OC"
Resp: 1400

Req: State its Ki for this compound: "CCN1CCN(c2cccc3c2CN([C@H](CCCNc2cncc(Cl)n2)c2ccc(OC)c(OC)c2)C3=O)CC1"
Resp: 62

Req: State its Ki for this compound: "COc1ccc(CN2C(=O)c3cccc(N4CCN(Cc5c(F)cccc5F)CC4)c3C2=O)cc1OC"
Resp: 310

Req: State its Ki for this compound: "COc1ccc(CN2C(=O)c3cccc(N4CCN(Cc5ccccc5)CC4)c3C2=O)cc1OC"
Resp: 160

Req: State its Ki for this compound: "CCN1CCN(c2cccc3c2CN([C@H](CCCNS(=O)(=O)c2cn(C)c(C)n2)c2ccc(OC)c(OC)c2)C3=O)CC1"
Resp: 25
